MEASUREMENT NOTES: probe aShh binding to arrayed compounds – biochemical, biotinylated probe, 635/667 nm fluorescence, primary screen (AID 1114);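 note: probe is biotin-labelled aShh protein from a stem cell growth factor screen; measures binding of labelled protein to compounds printed on the slide; score merges feature fluorescence at 667 nm with signal-to-noise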
EXPERIMENTAL CONDITIONS: small-molecule microarray, higher = more signal
Exercise: state measured composite z-score for each of the molecules provided.

Note to self: composite z-score recorded for O=C1O[C@@H](c2ccccc2)[C@@H](c2ccccc2)N2[C@@H](c3ccc(O)cc3)[C@]3(C(=O)Nc4ccccc43)[C@@H](C(=O)NC[C@H](O)c3ccccc3)[C@H]12 was -0.0232

Note to self: composite z-score recorded for COc1ccc(C(=O)Nc2cccc(CN3C(=O)[C@@]4(O[C@@H](CC(=O)N5Cc6ccccc6C[C@H]5CO)[C@H]([Si](C)(C)c5ccc(OC)cc5)[C@H]4C)c4ccccc43)c2)cc1 was 0.353

Note to self: composite z-score recorded for COCC1C2CC[C@H]3C(OCc4ccc(F)cc4C(F)(F)F)OC[C@]4(C)[C@H]3C2=C(CN4C(=O)OC(C)(C)C)[C@H](C)C1COC (stereo partly specified) was 0.177

Note to self: composite z-score recorded for [N-]=[N+]=Nc1ccccc1[C@@H]1OC(c2ccc(OCCCO)cc2)=N[C@]1(CCS(=O)(=O)c1ccccc1)C(=O)O was -0.0146

Note to self: composite z-score recorded for C=C(C(=O)CC[C@H](OC(=O)c1cccnc1)c1ccccc1OCCO)C(C)C was -0.0035

Note to self: composite z-score recorded for COc1ccc([Si](C)(C)[C@@H]2[C@@H](CCO)O[C@]3(C(=O)N(Cc4cccc(N5CCCCC5=O)c4)c4ccccc43)[C@H]2C)cc1 was -0.0626

Attribution: PubChem BioAssay
